meta.source: ChEMBL document CHEMBL1759994

Target: Cytochrome P450 3A4 (Homo sapiens)
Experiment: Inhibition of human CYP3A4 in human liver microsomes assessed as formation of 6beta-hydroxy-testosterone using testosterone as substrate by high throughput mass spectrometry preincubated for 30 mins in presence of NADPH
Type: ADME, Microsome
pIC50: −log10 of the molar value.
Quantity Name: pIC50

INSERT INTO results (compound, quantity_name, assay_value) VALUES
  ('COCCCc1cc(CN(C(=O)[C@H]2CNCC[C@@H]2c2ccc(OCCOc3c(Cl)cc(C)cc3Cl)cc2)C2CC2)cc(OC[C@H]2C[C@@H]2C(=O)O)c1', 'pIC50', '< 4.30'),
  ('COCCCc1cc(CN(C(=O)[C@H]2CNCC[C@@H]2c2ccc(OCCOc3c(Cl)cc(C)cc3Cl)cc2)C2CC2)cc(OCC[C@](C)(OC)C(=O)O)c1', 'pIC50', '< 4.30'),
  ('CCNC(=O)NCCCOc1cc(CCCOC)cc(CN(C(=O)[C@H]2CNCC[C@@H]2c2ccc(OCCOc3c(Cl)cc(C)cc3Cl)cc2)C2CC2)c1', 'pIC50', 5.62),
  ('COCCCc1cc(CN(C(=O)[C@H]2CNCC[C@@H]2c2ccc(OCCOc3c(Cl)cc(C)cc3Cl)cc2)C2CC2)cc(OC[C@H]2C[C@@H]2C(=O)NS(C)(=O)=O)c1', 'pIC50', '< 4.30'),
  ('COCCCc1cc(CN(C(=O)[C@H]2CNCC[C@@H]2c2ccc(OCCOc3c(Cl)cc(C)cc3Cl)cc2)C2CC2)cc(OCCC2(C(=O)O)CCCC2)c1', 'pIC50', '< 4.30'),
  ('COCCCc1cc(CN(C(=O)[C@H]2CNCC[C@@H]2c2ccc(OCCOc3c(Cl)cc(C)cc3Cl)cc2)C2CC2)cc(OCCCC(C)(C)C(=O)O)c1', 'pIC50', '< 4.30');

* * *

Test system: Blood
Assay: Metabolic stability in Sprague-Dawley rat whole blood assessed as conversion to (1R,2R)-2-((3-(((3R,4S)-N-cyclopropyl-4-(4-(2-(2,6-dichloro-4-methylphenoxy)ethoxy)phenyl)piperidine-3-carboxamido)methyl)-5-(3-methoxypropyl)phenoxy)methyl)cyclopropanecarboxylic acid after 20 mins
Type: ADME, tissue-based
Quantity Name: Activity (%)

INSERT INTO measurements (compound, quantity_name, assay_value) VALUES
  ('COCCCc1cc(CN(C(=O)[C@H]2CN(C(=O)OCc3oc(=O)oc3C)CC[C@@H]2c2ccc(OCCOc3c(Cl)cc(C)cc3Cl)cc2)C2CC2)cc(OC[C@H]2C[C@@H]2C(=O)O)c1', 'Activity', 93),
  ('CCOC(=O)[C@H]1C[C@@H]1COc1cc(CCCOC)cc(CN(C(=O)[C@H]2CNCC[C@@H]2c2ccc(OCCOc3c(Cl)cc(C)cc3Cl)cc2)C2CC2)c1', 'Activity', 99),
  ('COCCCc1cc(CN(C(=O)[C@H]2CNCC[C@@H]2c2ccc(OCCOc3c(Cl)cc(C)cc3Cl)cc2)C2CC2)cc(OC[C@H]2C[C@@H]2C(=O)OCC(=O)N(C)C)c1', 'Activity', 100),
  ('COCCCc1cc(CN(C(=O)[C@H]2CNCC[C@@H]2c2ccc(OCCOc3c(Cl)cc(C)cc3Cl)cc2)C2CC2)cc(OC[C@H]2C[C@@H]2C(=O)OCOC(=O)C(C)(C)C)c1', 'Activity', 100),
  ('CCOC(=O)OC(C)OC(=O)[C@H]1C[C@@H]1COc1cc(CCCOC)cc(CN(C(=O)[C@H]2CNCC[C@@H]2c2ccc(OCCOc3c(Cl)cc(C)cc3Cl)cc2)C2CC2)c1 (stereo not given in full)', 'Activity', 100);

* * *

Assay: AUC (0 to 24 hrs) in Sprague-Dawley rat at 30 mg/kg, po in peanut oil
Type: ADME, organism-based
Set-up: time < 24 hr, dose 30 mg/kg, route oral
Conditions: plasma
Quantity Name: AUC(0-t) at 24 h (µM·h)

INSERT INTO measurements (compound, display_unit, assay_value) VALUES
  ('COCCCc1cc(CN(C(=O)[C@H]2CNCC[C@@H]2c2ccc(OCCOc3c(Cl)cc(C)cc3Cl)cc2)C2CC2)cc(OC[C@H]2C[C@@H]2C(=O)O)c1', 'µM·h', 0.1);

* * *

Molecular target: Cytochrome P450 3A4 (Homo sapiens, UniProt P08684)
Sequence (P08684 whole entry): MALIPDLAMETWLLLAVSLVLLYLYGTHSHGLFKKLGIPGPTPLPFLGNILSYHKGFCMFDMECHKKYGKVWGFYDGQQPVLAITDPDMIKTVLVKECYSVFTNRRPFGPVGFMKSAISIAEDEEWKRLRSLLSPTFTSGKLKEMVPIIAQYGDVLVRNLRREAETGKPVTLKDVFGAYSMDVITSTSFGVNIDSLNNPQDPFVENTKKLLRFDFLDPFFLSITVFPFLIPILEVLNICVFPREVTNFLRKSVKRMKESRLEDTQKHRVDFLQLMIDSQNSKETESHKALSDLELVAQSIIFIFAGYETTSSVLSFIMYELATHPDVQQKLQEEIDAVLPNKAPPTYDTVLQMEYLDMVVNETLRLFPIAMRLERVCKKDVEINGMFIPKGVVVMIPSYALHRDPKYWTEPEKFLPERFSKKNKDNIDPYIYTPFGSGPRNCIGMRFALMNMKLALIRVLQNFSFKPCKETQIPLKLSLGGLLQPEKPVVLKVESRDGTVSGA
Test: Inhibition of human CYP3A4 in human liver microsomes assessed as formation of 6beta-hydroxy-testosterone using testosterone as substrate by high throughput mass spectrometry preincubated for 30 mins in presence of NADPH
Assay type: ADME, Microsome
Each entry below carries its recorded IC50.
Quantity Name: IC50 (nM)

INSERT INTO results (compound, display_unit, qualifier_sign, assay_value) VALUES
  ('COCCCc1cc(CN(C(=O)[C@H]2CNCC[C@@H]2c2ccc(OCCOc3c(Cl)cc(C)cc3Cl)cc2)C2CC2)cc(OCC2(CC(=O)O)CC2)c1', 'nM', '>', 50000),
  ('COCCCc1cc(CN(C(=O)[C@H]2CNCC[C@@H]2c2ccc(OCCOc3c(Cl)cc(C)cc3Cl)cc2)C2CC2)cc(OCCC(C)(C)C(=O)O)c1', 'nM', '>', 50000),
  ('COCCCc1cc(CN(C(=O)[C@H]2CNCC[C@@H]2c2ccc(OCCOc3c(Cl)cc(C)cc3Cl)cc2)C2CC2)cc(OCCN(C)C)c1', 'nM', '=', 1400),
  ('COCCCc1cc(CN(C(=O)[C@H]2CNCC[C@@H]2c2ccc(OCCOc3c(Cl)cc(C)cc3Cl)cc2)C2CC2)cc(OCCOC)c1', 'nM', '=', 2400);

* * *

Experiment: AUC (0 to 24 hrs) in Beagle dog at 3 mg/kg, po in 0.5% methocel
Type: ADME, organism-based, Canis lupus familiaris
Design: time < 24 hr, dose 3 mg/kg, route oral
Conditions: plasma
Quantity Name: AUC(0-t) at 24 h

INSERT INTO measurements (compound, assay_value) VALUES
  ('CCOC(=O)[C@H]1C[C@@H]1COc1cc(CCCOC)cc(CN(C(=O)[C@H]2CNCC[C@@H]2c2ccc(OCCOc3c(Cl)cc(C)cc3Cl)cc2)C2CC2)c1', '0.01 µM·h');

* * *

Experiment: Oral bioavailability in Sprague-Dawley rat at 30 mg/kg as 0.5% methocel suspension
Type: ADME, organism-based
Conditions: in vivo
Each entry below carries its recorded bioavailability.
Quantity Name: bioavailability (%)

INSERT INTO measurements (compound, display_unit, assay_value) VALUES
  ('COCCCc1cc(CN(C(=O)[C@H]2CNCC[C@@H]2c2ccc(OCCOc3c(Cl)cc(C)cc3Cl)cc2)C2CC2)cc(OCCCC(C)(C)C(=O)O)c1', '%', 22),
  ('COCCCc1cc(CN(C(=O)[C@H]2CNCC[C@@H]2c2ccc(OCCOc3c(Cl)cc(C)cc3Cl)cc2)C2CC2)cc(OCC2(Cc3nn[nH]n3)CC2)c1', '%', 0),
  ('CCC(CC)(CCOc1cc(CCCOC)cc(CN(C(=O)[C@H]2CNCC[C@@H]2c2ccc(OCCOc3c(Cl)cc(C)cc3Cl)cc2)C2CC2)c1)C(=O)O', '%', 26),
  ('COCCCc1cc(CN(C(=O)[C@H]2CNCC[C@@H]2c2ccc(OCCOc3c(Cl)cc(C)cc3Cl)cc2)C2CC2)cc(OCC(C)(C)C(=O)O)c1', '%', 9),
  ('COCCCc1cc(CN(C(=O)[C@H]2CNCC[C@@H]2c2ccc(OCCOc3c(Cl)cc(C)cc3Cl)cc2)C2CC2)cc(OC[C@H]2C[C@@H]2C(=O)NS(C)(=O)=O)c1', '%', 0),
  ('COCCCc1cc(CN(C(=O)[C@H]2CNCC[C@@H]2c2ccc(OCCOc3c(Cl)cc(C)cc3Cl)cc2)C2CC2)cc(OC[C@H]2C[C@@H]2C(=O)O)c1', '%', 1),
  ('COCCCc1cc(CN(C(=O)[C@H]2CNCC[C@@H]2c2ccc(OCCOc3c(Cl)cc(C)cc3Cl)cc2)C2CC2)cc(OCC[C@](C)(OC)C(=O)O)c1', '%', 3),
  ('CCOC(=O)[C@H]1C[C@@H]1COc1cc(CCCOC)cc(CN(C(=O)[C@H]2CNCC[C@@H]2c2ccc(OCCOc3c(Cl)cc(C)cc3Cl)cc2)C2CC2)c1', '%', 52),
  ('COCCCc1cc(CN(C(=O)[C@H]2CNCC[C@@H]2c2ccc(OCCOc3c(Cl)cc(C)cc3Cl)cc2)C2CC2)cc(OCCC(C)(C)C(=O)O)c1', '%', 13),
  ('COCCCc1cc(CN(C(=O)[C@H]2CNCC[C@@H]2c2ccc(OCCOc3c(Cl)cc(C)cc3Cl)cc2)C2CC2)cc(OCCC2(C(=O)O)CCCC2)c1', '%', 15),
  ('COCCCc1cc(CN(C(=O)[C@H]2CNCC[C@@H]2c2ccc(OCCOc3c(Cl)cc(C)cc3Cl)cc2)C2CC2)cc(OCC2(CC(=O)O)CC2)c1', '%', 2);
